Reported pKd values are given for each entry in this list.
Molecular target: PUM2-HD (Pumilio-homology domain) (Homo sapiens, UniProt Q8TB72 706-1056)
Sequence (Q8TB72 706-1056): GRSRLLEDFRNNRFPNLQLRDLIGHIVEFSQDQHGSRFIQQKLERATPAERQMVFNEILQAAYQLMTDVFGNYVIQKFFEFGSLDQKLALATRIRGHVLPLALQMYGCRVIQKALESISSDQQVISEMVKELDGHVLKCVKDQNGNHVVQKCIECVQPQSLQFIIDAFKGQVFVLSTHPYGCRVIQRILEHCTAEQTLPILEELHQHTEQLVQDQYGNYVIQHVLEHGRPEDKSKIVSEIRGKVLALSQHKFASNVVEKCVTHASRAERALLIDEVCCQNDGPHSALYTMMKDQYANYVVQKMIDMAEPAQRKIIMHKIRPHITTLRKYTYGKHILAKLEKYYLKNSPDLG
Experiment: EMSA
Formally, pKd is defined as -log10 of the concentration c, with c in mol/L.

The cases that follow already have their pKd on record.
In [3]: df
Out[3]:
                         binder  quantity_kind  reported_value
0    UGUACAUA (ssRNA) [hb NRE2]            pKd           10.15
1  UGUAAAUA (ssRNA) [p38α NREa]            pKd            9.77
2    UGUAUAUA (ssRNA) [hb NRE1]            pKd            9.44

Now turn to the next binder.
For the binder UGUAGAUA (ssRNA) [p38α NREb] , give its reported pKd.
10.10
